# tested on: recombinant human CXCR2 (Homo sapiens)
# Construct: TEV protease site; Gal4-VP16 transcription factor
# Sequence (P25025 1-360): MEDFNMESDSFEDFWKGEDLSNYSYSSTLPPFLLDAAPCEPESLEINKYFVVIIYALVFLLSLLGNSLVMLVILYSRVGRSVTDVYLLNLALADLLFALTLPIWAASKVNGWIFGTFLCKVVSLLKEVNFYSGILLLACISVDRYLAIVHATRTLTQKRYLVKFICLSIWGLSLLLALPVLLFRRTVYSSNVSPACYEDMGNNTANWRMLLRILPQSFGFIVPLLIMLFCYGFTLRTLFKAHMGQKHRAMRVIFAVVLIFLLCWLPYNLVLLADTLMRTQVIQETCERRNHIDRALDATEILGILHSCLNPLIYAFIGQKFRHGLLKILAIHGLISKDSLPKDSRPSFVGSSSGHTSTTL
# protocol details: CXCR2 Tango assay
# Assay type: cell-based
# condition summary: mean pIC50 of multiple test results; stimulated with 80 nM hCXCL1; reporter gene blue/green emission ratio; read-out: pIC50 (CXCR2 Tango assay) (converted)
Counter-ions that a name gives are not always drawn.
Reported IC50 values are given for each entry in this list.

molecule="CC(C)(CO)S(=O)(=O)c1c(Cl)ccc(NC(=O)N[C@@H]2CCC=C2Cl)c1O [Compound 12]" tested_on="recombinant human CXCR2 (Homo sapiens)" property_label=IC50 meas_value="≤ 10 nM"

Note to self: IC50 of CC1=CCC[C@H]1NC(=O)Nc1ccc(Cl)c(S(=O)(=O)C(C)c2ccccn2)c1O (some centres unmarked) [Compound 23, trifluoroacetic acid salt] with recombinant human CXCR2 (Homo sapiens) was ≤ 1 nM

Note to self: IC50 of COCC(C)(C)S(=O)(=O)c1c(Cl)ccc(NC(=O)NC2CCC=C2Cl)c1O (centres unmarked) [Compound 157] with recombinant human CXCR2 (Homo sapiens) was ≤ 10 nM

Note to self: IC50 of O=C(Nc1ccc(Cl)c(S(=O)(=O)[C@H]2CCOC2)c1O)NC1CCC=C1Cl (some centres unmarked) [Compound 179] with recombinant human CXCR2 (Homo sapiens) was ≤ 10 nM

Note to self: IC50 of C[C@]1(S(=O)(=O)c2c(Cl)ccc(NC(=O)N[C@@H]3CCC=C3Cl)c2O)CCOC1 (single isomer, unassigned) [Compound 197] with recombinant human CXCR2 (Homo sapiens) was ≤ 10 nM
